Target: T1, cynomolgus IL-36α, truncated (cynomolgus macaque (Macaca fascicularis), UniProt Q9UHA7 14-158 (human entry), limits assumed)
T1 construct: Untagged after removal of the His-SUMO tag; also called cynomolgus IL-36 alpha; cyIL-36alpha
T1 chain: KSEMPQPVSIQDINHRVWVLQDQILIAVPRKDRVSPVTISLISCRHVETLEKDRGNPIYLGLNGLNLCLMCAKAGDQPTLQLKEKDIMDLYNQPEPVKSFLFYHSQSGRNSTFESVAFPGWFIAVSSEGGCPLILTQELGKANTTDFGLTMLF
Assay: SPR, Biacore, 1:1 Langmuir fit; heads of c3 and c4 printed swapped
Measurement Kind: kon (M⁻¹ s⁻¹)
Report the figure in M⁻¹ s⁻¹ without appending any unit label.

// kon lookup, binder = 144L249B LV7a HV11 (antibody, V domains shown, Humanized) VH: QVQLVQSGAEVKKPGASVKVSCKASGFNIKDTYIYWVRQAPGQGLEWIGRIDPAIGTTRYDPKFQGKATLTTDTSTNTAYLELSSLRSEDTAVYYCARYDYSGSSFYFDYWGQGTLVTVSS VL: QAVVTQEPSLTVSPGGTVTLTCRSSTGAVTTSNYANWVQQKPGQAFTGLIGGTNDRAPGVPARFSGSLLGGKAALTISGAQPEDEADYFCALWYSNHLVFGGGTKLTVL , result: 1.4e+06

Attribution: patent US20210380675A1
